molecular target: recombinant Vps34 (Homo sapiens, UniProt Q8NEB9); assay: Phosphorylation of phosphatidylinositol (PI) by Vps34 in vitro, ADP detected by TR-FRET (HTRF Transcreener ADP); conditions: 10 μM ATP, 55 μg/ml PI, approximately 3 nM Vps34, 1 hour at ambient temperature; absolute IC50, mean of two independent experiments; read-out: IC50 activity range
Sequence (Q8NEB9 whole entry): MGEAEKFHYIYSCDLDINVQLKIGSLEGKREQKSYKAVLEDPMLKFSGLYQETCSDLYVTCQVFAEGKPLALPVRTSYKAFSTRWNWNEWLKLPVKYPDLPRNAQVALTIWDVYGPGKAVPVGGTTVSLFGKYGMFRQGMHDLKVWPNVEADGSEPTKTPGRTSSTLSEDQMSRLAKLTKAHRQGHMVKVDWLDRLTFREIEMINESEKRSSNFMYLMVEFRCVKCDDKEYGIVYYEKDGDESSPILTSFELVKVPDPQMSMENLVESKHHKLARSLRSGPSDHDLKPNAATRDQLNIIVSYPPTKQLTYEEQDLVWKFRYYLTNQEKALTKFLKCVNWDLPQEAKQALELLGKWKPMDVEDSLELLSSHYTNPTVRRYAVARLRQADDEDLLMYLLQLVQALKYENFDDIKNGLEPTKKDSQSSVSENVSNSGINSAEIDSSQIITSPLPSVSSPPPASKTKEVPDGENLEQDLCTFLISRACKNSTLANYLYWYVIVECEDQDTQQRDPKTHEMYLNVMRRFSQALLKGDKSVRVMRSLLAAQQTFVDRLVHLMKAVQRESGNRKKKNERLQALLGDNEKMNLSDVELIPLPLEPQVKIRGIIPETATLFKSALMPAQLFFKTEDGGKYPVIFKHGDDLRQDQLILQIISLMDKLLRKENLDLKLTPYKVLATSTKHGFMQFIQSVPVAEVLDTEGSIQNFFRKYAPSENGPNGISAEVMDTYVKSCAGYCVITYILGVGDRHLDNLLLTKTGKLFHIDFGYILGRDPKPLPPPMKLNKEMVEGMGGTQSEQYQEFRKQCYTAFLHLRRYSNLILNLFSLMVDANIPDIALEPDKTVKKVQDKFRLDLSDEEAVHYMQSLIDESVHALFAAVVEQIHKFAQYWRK
For each of the compounds below, state its IC50.

C[C@@H]1COCCN1c1nc2n(c(=O)c1F)CC[C@@H](C(F)(F)F)N2Cc1ccnc(F)c1 [Example 5]
< 10 nM
C[C@@H]1COCCN1c1nc2n(c(=O)c1F)CC[C@@H](C(F)(F)F)N2c1ccc(C(F)F)nc1 [Example 53]
< 10 nM
C[C@@H]1COCCN1c1cc(=O)n2c(n1)N(c1ccc(C3CC3)nc1)[C@H](C(F)(F)F)CC2 [Example 302]
< 10 nM
CC(=O)CN1c2nc(N3CCOC[C@H]3C)c(F)c(=O)n2CC[C@H]1C(F)(F)F [Example 7]
< 10 nM
CC(C)C(=O)CN1CC[C@H](C(F)(F)F)n2c1nc(N1CCOC[C@H]1C)cc2=O [Example 130]
< 10 nM
O=c1cc(N2CC3CCC(C2)O3)nc2n1CC[C@@H](C(F)(F)F)N2Cc1ccno1 [Example 164]
10 to 100 nM

Please give IC50 for each item listed below.
1. CC(C)Oc1ccc(N2CC[C@H](C(F)(F)F)n3c2nc(N2CCOC[C@H]2C)cc3=O)cn1 [Example 116]
2. C[C@@H]1COCCN1c1cc(=O)n2c(n1)N(CC(=O)C1(C)CCCC1)[C@H](C(F)(F)F)CC2 [Example 253]
3. C[C@@H]1COCCN1c1nc2n(c(=O)c1F)CC[C@@H](C(F)(F)F)N2c1cccnc1 [Example 47]
4. C[C@H]1COCCN1c1cc(=O)n2c(n1)N(Cc1ccc(Cl)s1)[C@H](C(F)(F)F)CC2 [Example 178]
5. C[C@@H]1COCCN1c1nc2n(c(=O)c1F)[C@@H](C(F)(F)F)CCN2Cc1nc(C(F)(F)F)no1 [Example 28]
6. C[C@@H]1COCCN1c1cc(=O)n2c(n1)N(c1ccncc1)[C@H](C(F)(F)F)CC2 [Example 198]
7. C[C@@H]1COCCN1c1cc(=O)n2c(n1)N(Cc1ccno1)CC[C@@H]2C(F)(F)F [Example 105]
8. C[C@@H]1COCCN1c1cc(=O)n2c(n1)N(Cc1cnco1)[C@](C)(C(F)(F)F)C2 [Example 182]

< 10 nM
< 10 nM
10 to 100 nM
10 to 100 nM
< 10 nM
< 10 nM
10 to 100 nM
10 to 100 nM

Items follow; give IC50 for each.
1. C[C@@H]1COCCN1c1nc2n(c(=O)c1F)CC[C@@H](C(F)(F)F)N2Cc1ccon1 [Example 296]
2. C[C@@H]1COCCN1c1nc2n(c(=O)c1F)CC[C@@H](C(F)(F)F)N2c1ccncc1 [Example 55]
3. CC(C)CC(=O)CN1c2nc(N3CCOC[C@H]3C)cc(=O)n2CC[C@H]1C(F)(F)F [Example 276]
4. C[C@@H]1COCCN1c1cc(=O)n2c(n1)N(Cc1cccc(F)n1)[C@H](C(F)(F)F)CC2 [Example 224]

< 10 nM
< 10 nM
< 10 nM
< 10 nM
